molecular target: WEE1 (Homo sapiens, UniProt P30291+Q96SW2); construct: C-terminal ePL-tagged (DiscoverX, Fremont, CA) full-length WEE1 expression construct; expressed in transfected cells; host or cells: LentiX-HEK293T (Invitrogen), lentiviral transduction; co-expressing GSPT1-GN (G576N, lacking the first 158 amino acids); test: WEE1-ePL degradation assay (LentiX-WEE1-ePL-GSPT1-ND cells, InCELL Hunter luminescence, 4 h); assay type: cell-based; settings: 293T-LentiX WEE1-ePL cells, lower limit of the fit (0 = luciferase inhibitor, Ymax = DMSO control)
Sequence (P30291 whole entry): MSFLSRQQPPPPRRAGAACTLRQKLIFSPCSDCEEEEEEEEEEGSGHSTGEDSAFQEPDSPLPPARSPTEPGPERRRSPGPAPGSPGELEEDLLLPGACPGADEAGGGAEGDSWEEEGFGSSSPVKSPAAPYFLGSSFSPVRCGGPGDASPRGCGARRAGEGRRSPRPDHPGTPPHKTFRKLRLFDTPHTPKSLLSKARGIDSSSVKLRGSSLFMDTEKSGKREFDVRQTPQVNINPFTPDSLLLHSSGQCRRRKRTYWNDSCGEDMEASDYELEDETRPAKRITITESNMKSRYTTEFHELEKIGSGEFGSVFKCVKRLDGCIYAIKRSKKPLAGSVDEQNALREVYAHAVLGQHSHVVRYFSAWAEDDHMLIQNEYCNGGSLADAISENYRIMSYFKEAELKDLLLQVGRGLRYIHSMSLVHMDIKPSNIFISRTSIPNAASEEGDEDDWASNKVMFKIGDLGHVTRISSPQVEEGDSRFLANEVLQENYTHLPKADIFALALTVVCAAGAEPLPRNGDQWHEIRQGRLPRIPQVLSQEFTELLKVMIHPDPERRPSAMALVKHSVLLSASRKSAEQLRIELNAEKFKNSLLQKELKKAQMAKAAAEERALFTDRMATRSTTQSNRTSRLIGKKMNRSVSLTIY
Sequence (Q96SW2 whole entry): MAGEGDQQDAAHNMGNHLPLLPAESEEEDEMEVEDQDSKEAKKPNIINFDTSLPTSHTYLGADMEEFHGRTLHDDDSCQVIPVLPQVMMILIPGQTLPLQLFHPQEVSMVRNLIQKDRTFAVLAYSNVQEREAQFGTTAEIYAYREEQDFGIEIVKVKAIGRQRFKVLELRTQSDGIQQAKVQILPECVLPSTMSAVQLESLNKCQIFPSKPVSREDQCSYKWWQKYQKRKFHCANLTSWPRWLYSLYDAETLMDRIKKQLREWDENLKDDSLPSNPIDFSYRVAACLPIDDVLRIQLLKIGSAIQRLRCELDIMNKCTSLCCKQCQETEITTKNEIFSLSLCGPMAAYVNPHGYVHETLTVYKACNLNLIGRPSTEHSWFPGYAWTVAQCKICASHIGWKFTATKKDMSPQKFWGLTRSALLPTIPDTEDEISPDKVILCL
Sequence (Q16531 whole entry partner): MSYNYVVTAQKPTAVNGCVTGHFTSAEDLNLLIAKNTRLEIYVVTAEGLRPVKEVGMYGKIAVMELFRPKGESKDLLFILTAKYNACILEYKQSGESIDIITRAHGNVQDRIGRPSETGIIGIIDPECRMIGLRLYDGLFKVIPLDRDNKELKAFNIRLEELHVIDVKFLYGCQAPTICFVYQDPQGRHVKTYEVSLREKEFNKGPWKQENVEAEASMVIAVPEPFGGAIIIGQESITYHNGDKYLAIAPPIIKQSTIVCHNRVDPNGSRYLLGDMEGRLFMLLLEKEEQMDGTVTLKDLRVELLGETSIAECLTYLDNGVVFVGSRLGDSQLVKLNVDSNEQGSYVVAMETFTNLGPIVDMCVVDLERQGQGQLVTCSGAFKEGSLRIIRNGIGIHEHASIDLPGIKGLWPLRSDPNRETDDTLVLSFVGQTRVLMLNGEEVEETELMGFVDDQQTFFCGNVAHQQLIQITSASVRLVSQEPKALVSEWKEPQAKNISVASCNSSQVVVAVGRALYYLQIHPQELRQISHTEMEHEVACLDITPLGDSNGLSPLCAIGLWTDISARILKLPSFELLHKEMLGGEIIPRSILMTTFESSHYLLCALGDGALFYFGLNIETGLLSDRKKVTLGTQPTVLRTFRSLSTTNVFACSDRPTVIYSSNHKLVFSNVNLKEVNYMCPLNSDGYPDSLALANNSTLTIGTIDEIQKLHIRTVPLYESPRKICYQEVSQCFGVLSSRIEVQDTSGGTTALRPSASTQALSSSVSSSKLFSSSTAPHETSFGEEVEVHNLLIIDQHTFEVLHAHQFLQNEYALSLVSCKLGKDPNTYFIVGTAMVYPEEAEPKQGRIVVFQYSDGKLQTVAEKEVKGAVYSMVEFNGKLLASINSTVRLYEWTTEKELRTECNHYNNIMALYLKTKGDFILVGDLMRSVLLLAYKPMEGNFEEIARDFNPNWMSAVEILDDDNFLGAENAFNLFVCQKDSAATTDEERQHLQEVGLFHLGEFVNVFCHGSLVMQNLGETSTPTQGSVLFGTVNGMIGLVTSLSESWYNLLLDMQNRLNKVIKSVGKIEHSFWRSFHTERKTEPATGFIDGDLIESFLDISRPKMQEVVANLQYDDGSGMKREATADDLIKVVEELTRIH
Kindly return condition met if reported 293T-LentiX WEE1-ePL Degradation 4 hr (Ymin) is no lower than 30; return condition not met if it is lower.

O=C1CCC(N2Cc3cc(O[C@H]4CCN(Cc5ccc6nc([C@H]7CC[C@H](O)C7)ccc6c5)C4)ccc3C2=O)C(=O)N1 (stereo partly drawn): condition not met
O=C1CCC(N2Cc3cc(O[C@H]4CCN(Cc5ccc6nc(N7CCCC(F)(F)C7)ccc6c5)C4)ccc3C2=O)C(=O)N1 (stereo partly drawn): condition not met
Cc1cccc2ncc(CN3CC[C@H](Oc4ccc5c(c4)CN(C4CCC(=O)NC4=O)C5=O)C3)cc12 (stereo partly drawn): condition not met
CN1CC(c2ccc3cc(CN4CC[C@H](Oc5ccc6c(c5)CN(C5CCC(=O)NC5=O)C6=O)C4)ccc3n2)C1 (stereo partly drawn): condition met
O=C1CCC(N2Cc3cc(O[C@H]4CCN(Cc5ccc6nc(N7C[C@H]8COC[C@H]8C7)ccc6c5)C4)ccc3C2=O)C(=O)N1 (stereo partly drawn): condition met
O=C1CCC(N2Cc3cc(O[C@H]4CCN(Cc5cc6cc(F)ccc6cn5)C4)c(F)cc3C2=O)C(=O)N1 (stereo partly drawn): condition met

Task item: Is it the case that Cc1ncc2cc(CN3CC[C@H](Oc4ccc5c(c4)CN(C4CCC(=O)NC4=O)C5=O)C3)ccc2n1 (stereo partly drawn) has 293T-LentiX WEE1-ePL Degradation 4 hr (Ymin) reaching or exceeding 30?
Reply: condition met

Task item: Decide: is the reported value of 293T-LentiX WEE1-ePL Degradation 4 hr (Ymin) for O=C1CCC(N2Cc3cc(O[C@H]4CCN(Cc5ccc6nc(N7CCOCC7)ccc6c5)C4)ccc3C2=O)C(=O)N1 (stereo partly drawn) equal to or greater than 30?
Reply: condition met

Task item: // inclusive: 293T-LentiX WEE1-ePL Degradation 4 hr (Ymin) at least 30? input: CO[C@H]1CCCN(c2ccc3cc(CN4CC[C@H](Oc5ccc6c(c5)CN(C5CCC(=O)NC5=O)C6=O)C4)ccc3n2)C1 (stereo partly drawn)
Reply: condition met

Task item: Test whether the compound C[C@H]1CC(c2ccc3cc(CN4CC[C@H](Oc5ccc6c(c5)CN(C5CCC(=O)NC5=O)C6=O)C4)ccc3n2)CCO1 (stereo partly drawn) records 293T-LentiX WEE1-ePL Degradation 4 hr (Ymin) of 30 or higher.
Reply: condition not met
